experimental_target: T1, ScCdc14^1-449 (S. cerevisiae, UniProt Q00684 1-449)
T1 construct: Expressed from pDEST17; also called Saccharomyces cerevisiae Cdc14 truncation that retains the SLiCE motif; source: E. coli, purified (HisTrap nickel sepharose)
T1 sequence (looked up): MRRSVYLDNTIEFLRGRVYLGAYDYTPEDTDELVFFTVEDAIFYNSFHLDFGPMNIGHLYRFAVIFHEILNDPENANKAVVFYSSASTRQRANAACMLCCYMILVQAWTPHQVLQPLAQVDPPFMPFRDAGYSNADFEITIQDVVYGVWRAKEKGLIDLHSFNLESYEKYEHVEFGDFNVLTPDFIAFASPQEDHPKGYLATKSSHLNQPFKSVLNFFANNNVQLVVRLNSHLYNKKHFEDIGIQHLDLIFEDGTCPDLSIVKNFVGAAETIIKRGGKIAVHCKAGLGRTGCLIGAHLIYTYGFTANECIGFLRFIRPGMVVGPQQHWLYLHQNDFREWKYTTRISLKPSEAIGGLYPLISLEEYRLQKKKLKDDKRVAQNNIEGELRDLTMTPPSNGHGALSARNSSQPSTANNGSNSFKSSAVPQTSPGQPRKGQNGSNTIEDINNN
applied_conditions: both partners purified
Starred links: 1 amine or outer side, 2 acyl side, 3 side chain; linkers in the order of their positions; H or OH if unused. Non-standard residues stand in square brackets, D forms with d. No end group written: not given here. pCF2‑Ser = (α,α-difluoromethylene)phosphonoserine, O=C([C@H](CC(F)(F)P(=O)(O)O)N[*:1])[*:2]
measurement_name: pKd
Lab note — pKd values are minus log10 of concentrations in M.

Task: Using the record for EV[pCF2‑Ser]PTKR [EV(pCF2-Ser)PTKR] , state its measured pKd.
Output: 5.22

Values compiled from paper PMC11407943.
